ASSAY_INFO: forskolin-driven CRE-LacZ activity in PC12 – cell-based, CRE-LacZ reporter, forskolin-stimulated, primary screen (AID 1146);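 also: PC12 cells with 6xCRE LacZ reporter stimulated by forskolin 10 µM; beta-galactosidase reporter signal reflecting CREB driven transcription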
MEASUREMENT_CONTEXT: luminescence, 4.5 h, higher = more signal, called active from +8 up or from −8 down
The entries below are paired with their reported z-score.
Returns: the value as a bare number; no unit string appended.

Solved entries:
stdin: Param item = [N-]=[N+]=Nc1ccccc1C[C@]1(C(=O)N2CCOCC2)N=C(c2ccc(OCCCO)cc2)O[C@H]1c1ccccc1N=[N+]=[N-] ; retrieve measured z-score.
stdout: -2.38

stdin: Next: COC(=O)[C@@]1(Cc2ccc(OC)cc2)[C@H]2c3cc(C(=O)N4CCCC4)n(CCn4cc([N+](=O)[O-])nc4C)c3C[C@H]2CN1C(=O)c1ccccc1
stdout: 0.861

stdin: Would you mind doing C=CCC(OC(C)=O)[C@@H]1[C@@H](N(Cc2cccc3ccccc23)C(=O)c2ccc(-c3ccccc3)cc2)c2cc(OCCCO)ccc2N1C(=O)Cc1ccc2ccccc2c1 (some centres not stated) as well?
stdout: 0.0677

stdin: Try this compound too: COc1ccc(C(O)C2C=CC3C(=O)N(c4ccccc4)C(=O)C3N2Nc2ccc(C#N)cc2)cc1OCc1ccccc1 (configuration not stated)
stdout: 0.338

stdin: Could you do the same for COc1ccc(C(=O)Nc2cccc(CN3C(=O)[C@@]4(O[C@@H](CC(=O)N5CCC[C@H]5CO)[C@H]([Si](C)(C)c5ccc(OC)cc5)[C@H]4C)c4ccccc43)c2)cc1 , please?
stdout: -1.55

Others:
stdin: Bench note: what z-score did COC(=O)[C@@]1(Cc2ccc(F)cc2)[C@H]2c3cc(C(=O)N4CCCC4)n(Cc4ccccn4)c3C[C@H]2CN1C(=O)c1ccccc1 show?
stdout: 1.35

stdin: Same lookup for CN1C(=O)C2C(C1=O)C1C=C(c3ccc(CO)cc3)C2C(C2CC2)N1C (configuration not stated) , please.
stdout: 0.173

---

ASSAY_INFO: calcein-AM signal in unstimulated myeloma cells – cell-based, calcein-AM fluorescence, 48 h, PK04 Diversity Set, profiling panel (AID 1166);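 also: cells grown under basal conditions without added stimulus; test concentration not given here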
MEASUREMENT_CONTEXT: RPMI8226 myeloma viability, higher = more signal
z-score vs -0.7: less than gives 1; not less than gives 0.

stdin: Dear colleague, could you confirm whether z-score of C=C(CCCC)C(=O)CC[C@@H](OC(=O)c1ccccc1-c1ccccc1C(=O)O)c1ccccc1OCCO falls below -0.7? Thanks.
stdout: 1

stdin: Field entry: C=CCOC(=O)[C@@H]1[C@H]2C(=O)O[C@H](c3ccccc3)[C@H](c3ccccc3)N2[C@H](c2ccc(OCCOC(=O)[C@H]3C[C@H]4C(=O)N[C@@H](CCCCN(C)C)C(=O)N4[C@H]3c3ccc(O)cc3)cc2)[C@@]12C(=O)Nc1ccc(I)cc12
stdout: 1

stdin: What do you get for CN(C)CCCC[C@@H]1NC(=O)[C@H]2C[C@@H](C(=O)O)[C@@H](c3ccc(O)cc3)N2C1=O ?
stdout: 1

stdin: Then this molecule: C=C(C)[C@@H]1CC=C(C(O)C2C=CC3C(=O)N(C)C(=O)C3N2Nc2ccc([N+](=O)[O-])cc2[N+](=O)[O-])CC1 (stereo partly drawn)
stdout: 1

stdin: COC(=O)[C@@]1(Cc2ccc(OC)cc2)[C@H]2c3cc(C(=O)N4CCCC4)n(Cc4c(CO)[nH]cc(C)c4=O)c3C[C@H]2CN1C(=O)c1ccccc1 , same question.
stdout: 0

stdin: Would you mind doing C=CCNC(=O)[C@H]1[C@@H]2C(=O)O[C@@H](c3ccccc3)[C@@H](c3ccccc3)N2[C@@H](c2ccccc2OCCO)[C@]12C(=O)N(C(=O)OCCOC)c1ccc(C#Cc3ccc(OC)cc3)cc12 as well?
stdout: 1

stdin: Now the molecule CCCC#C[Si](O[C@H](CC)c1cn(Cc2ccccc2)nn1)(C(C)C)C(C)C
stdout: 0

stdin: And the next one, CN(C)CCCNC(=O)[C@@]1(Cc2ccccc2I)c2ccccc2C(=O)N(C2CCCCC2)[C@H]1c1ccc(CO)cc1 ?
stdout: 1
